Tested on: M14 melanoma
Experiment: NCI tumour cell line growth inhibition, 48 h
Reported TGI values for the following compounds.

COc1cc2c(cc1OCCCCCOc1cc(-c3ccc(F)cc3)nc(C)n1)N=C[C@@H]1CCCN1C2=O | > 65.7 µM
CCCCCCN1C(=O)/C(=c2\sc3n(c2=O)C2C(NN=3)N(CC)C(=O)N2CC)c2ccccc21 (stereo unspecified) | > 50 µM

Quick note, TGI for "CC(=NNC(=S)Nc1ccccc1C)c1cccc(C(C)=NNC(=S)Nc2ccccc2C)n1" landed at > 100 µM

Quick note, TGI for "CC(=O)c1c2c(cc3c1CC1(Cc4cc5c(cc4C1)CCC5)C3)CCC2" landed at > 100 µM

Quick note, TGI for "CN(C)c1cccc2[nH]c(-c3[nH]ncc3Nc3ccnc(N)n3)nc12" landed at 0.0812 µM

Quick note, TGI for CC(=O)OC1[C@H]2c3cc4c(cc3CN3CCC(C[C@@H]1OC(C)=O)C23)OCO4 (stereo partly specified) landed at > 75 µM

Quick note, TGI for Cc1ccccc1C(C#N)/C(=N/NC(=O)c1cc2ccccc2cc1O)C(=O)Nc1cccc(Cl)c1 (stereo unspecified) landed at > 100 µM

Quick note, TGI for "N#Cc1c(NC(=O)c2cccs2)[n+]([O-])c2ccccc2[n+]1[O-]" landed at > 100 µM

Quick note, TGI for Cc1ccc(S(=O)(=O)N(c2ccccc2F)C2CCCCC2O)cc1 (stereo unspecified) landed at > 100 µM

Quick note, TGI for CCCCCCCCCCCCCCCCC(C(=O)O)C(O)(CC(=O)O)C(=O)O (stereo unspecified) landed at 47.7 µM

Quick note, TGI for CC(=O)/C=C1/c2ccccc2N(C(C)=O)C1O (stereo unspecified) landed at > 100 µM

Quick note, TGI for "Cc1ccc2c(ccc3c[n+]4ccccc4c(C)c32)c1" landed at 20.9 µM

Quick note, TGI for "CC[C@@]1(O)C(=O)NCc2c1cc1n(c2=O)Cc2cc3cc4c(cc3nc2-1)OCO4" landed at > 39.2 µM

Quick note, TGI for CC1CN=C(NCc2ccccc2)S1 (stereo unspecified) landed at > 100 µM

Quick note, TGI for "Cc1cc2c(C(C)C)c(O)c(O)c3coc(/c1=c1/c(C)cc4c(C(C)C)c(=O)c(=O)c5coc1c45)c32" landed at 25.5 µM

---

Test system: COLO 205 colon
Assay: NCI tumour cell line growth inhibition, 48 h
quantity name: TGI

Worked examples follow.
Cn1c2ccccc2c2c(=O)n(CCCC(=O)NCC(=O)OC(=NC3CCCCC3)NC3CCCCC3)c3c(-c4ccccc4)nnn3c21 | > 100 µM
C1=CCN(c2ccccc2)CC1 | > 100 µM
c1ccc(C2=NN(c3ccccc3)C3(S2)SC(c2ccccc2)(c2ccccc2)c2ccccc23)cc1 (stereo not given) | > 100 µM
CCCCCCCCCC(=O)OCC1(CO)C/C(=C/CC(C(C)C)C(C)C)C(=O)O1 (stereo not given) | 28.7 µM

Turning now to a further compound:
Quick note, TGI for "Cn1cnc2c(F)c(Nc3ccc(Br)cc3Cl)c(C(=O)NOCCO)cc21" landed at > 15.1 µM

---

System: NCI/ADR-RES ovarian
Assay: NCI tumour cell line growth inhibition, 48 h
quantity name: TGI

Worked examples follow.
OCCNc1nc(NCCO)nc(Nc2ccc(C3=NN(c4cc(Cl)cc(Cl)c4)C(c4ccc(Cl)cc4)C3)cc2)n1 (centres undefined) | 7.08 µM
CCCCCCN(C(=O)Oc1ccccc1)C(C#N)c1ccccc1 (centres undefined) | > 100 µM
COc1ccc(NC2=C(Sc3nc(C)cc(C)n3)C(=O)N(Cc3ccccc3)C2=O)cc1Cl | > 160 µM

Quick note, TGI for CCOP(=O)(CS(C)=O)O[C@@H]1C[C@H](C)CC[C@H]1C(C)C (some centres undefined) landed at 26 µM

Quick note, TGI for "O=C(Oc1ccccc1)c1cc(O)c(O)c(O)c1" landed at 56.7 µM

Quick note, TGI for "CC1(C)CCSC(/C=C/c2ccccc2)=N1" landed at 38.2 µM

Quick note, TGI for "NC(=S)N/N=C/c1cc(CN2CCOCC2)c(N)cn1" landed at 94.3 µM

Quick note, TGI for "C=C1C(=O)O[C@H]2[C@H]1CC/C(COC(=O)NCCc1ccc(OC)cc1)=C\CC[C@@]1(C)O[C@@H]21" landed at 32.6 µM

Quick note, TGI for "Cc1sc2ncnc(NCCc3ccccc3)c2c1C" landed at > 100 µM

Quick note, TGI for "COc1ccc(Cl)cc1N1C(=O)C(Cl)=C(Nc2cccc(O)c2)C1=O" landed at 95.4 µM

Quick note, TGI for "NN/C(=N\S(=O)(=O)c1cc(Cl)c(Oc2ccc([N+](=O)[O-])cc2Cl)c(Cl)c1)Nc1ccc(Cl)cc1" landed at 67.9 µM

Quick note, TGI for COc1cc(/C=C2\CCCC3=C2NC(N)=NC3c2cc(OC)c(OC)c(OC)c2)cc(OC)c1OC (centres undefined) landed at > 100 µM

Quick note, TGI for CN(C)c1ccc(C2CC(=O)CC(c3ccc(N(C)C)cc3)C23C(=O)NC(=O)NC3=O)cc1 (centres undefined) landed at > 25 µM

Quick note, TGI for Cc1cccc(C(C)O)n1 (centres undefined) landed at > 100 µM

Sourced from PubChem BioAssay (NCI)
